System: Escherichia coli (E. coli—ATCC #10536)
Assay: Automated assessment of efficacy in model surfactant base (2.85% sodium cocoyl glycinate + 1.85% sodium lauroamphoacetate, pH 10), 15 seconds exposure, delta OD450/OD590 in D/E quench
Format: cell-based
Experimental parameters: single active at 0.05% w/v
Measured parameter: Δ OD 590 nm = OD590 (time = 16 hours) − OD590 (time zero), Mean

compound="CCC(C)c1ccccc1O (stereo not shown) [2-sec-butylphenol]" experimental_result=0.30
compound="Cc1cc(O)ccc1C(C)C [4-isopropyl-3-methylphenol]" experimental_result=0.25
compound="CCCc1ccccc1O [2-n-propylphenol]" experimental_result=0.46

Next up:
Input: Returns the measured Δ OD 590 nm = OD590 (time = 16 hours) − OD590 (time zero), Mean for the input compound. Input: CC(C)(C)c1ccccc1O [2-tert-butylphenol]
Output: 0.22

---

# Δ OD 590 nm = OD590 (time = 16 hours) − OD590 (time zero), Mean per entry
Test system: Escherichia coli (E. coli—ATCC #10536)
Assay: Automated assessment of efficacy in model surfactant base (2.85% sodium cocoyl glycinate + 1.85% sodium lauroamphoacetate, pH 10), 15 seconds exposure, delta OD450/OD590 in D/E quench
Format: cell-based
Experimental parameters: single active at […] w/v
Enter the number alone.

compound="C=C(C)C1CCC(C)CC1O (centres unmarked)" experimental_result=0.59
compound="C=C(C)C1CC=C(C)C(O)C1 (centres unmarked)" experimental_result=0.63
compound="C=C(C)C1CCC(C)C(O)C1 (centres unmarked)" experimental_result=0.63
compound="CCC(C)c1ccccc1O (centres unmarked)" experimental_result=0.50
compound="CCC(C)c1ccc(O)cc1 (centres unmarked)" experimental_result=0.60

Next up:
Input: Returns the measured Δ OD 590 nm = OD590 (time = 16 hours) − OD590 (time zero), Mean for the input compound. Input: C/C=C/c1ccccc1O [(E)-2-(prop-1-enyl)phenol]
Output: 0.58

---

Test system: Escherichia coli (E. coli—ATCC #10536)
Assay: Automated assessment of efficacy in model surfactant base (2.85% sodium cocoyl glycinate + 1.85% sodium lauroamphoacetate, pH 10), 15 seconds exposure, delta OD450/OD590 in D/E quench
Format: cell-based
Experimental parameters: single active at 0.2% w/v
# Δ OD 590 nm = OD590 (time = 16 hours) − OD590 (time zero), Mean per entry
Enter the number alone.

These solved cases illustrate the format of a correct answer.
compound="C=C(C)C1CC=C(C)C(O)C1 (stereo not shown)" experimental_result=0.61
compound=CCCc1ccc(O)cc1 experimental_result=0.43
compound=Cc1cc(O)ccc1C(C)C experimental_result=0.36
compound=CCCCc1ccc(O)cc1 experimental_result=0.58
compound="CCC(C)c1ccc(O)cc1 (stereo not shown)" experimental_result=0.59

Next up:
Input: Returns the measured Δ OD 590 nm = OD590 (time = 16 hours) − OD590 (time zero), Mean for the input compound. Input: CC(C)(C)c1ccccc1O
Output: 0.07

---

Tested on: Escherichia coli (E. coli—ATCC #10536)
Assay: Automated assessment of efficacy in model surfactant base (2.85% sodium cocoyl glycinate + 1.85% sodium lauroamphoacetate, pH 10), 15 seconds exposure, delta OD450/OD590 in D/E quench
Type: cell-based
Experimental parameters: single active at […] w/v
# ΔOD 450 nm = OD450 (time = 16 hours) − OD450 (time zero), Mean per entry
Enter the number alone.

These solved cases illustrate the format of a correct answer.
compound="CCC(C)c1ccccc1O (centres unmarked) [2-sec-butylphenol]" experimental_result=−0.41
compound="Cc1ccc(C(C)C)cc1O [5-isopropyl-2-methylphenol]" experimental_result=−0.52
compound="C=C(C)C1CC=C(C)C(O)C1 (centres unmarked)" experimental_result=−0.50
compound="CCC(C)c1ccc(O)cc1 (centres unmarked) [4-sec-butylphenol]" experimental_result=−0.53

Input: Returns the measured ΔOD 450 nm = OD450 (time = 16 hours) − OD450 (time zero), Mean for the input compound. Input: CCCc1cccc(O)c1 [3-n-propylphenol]
Output: −0.63

Cited source for all entries: patent US9820483B2
